Some compounds, each annotated with its measured CC50 at 24 h.
MEASUREMENT DESCRIPTION: in vitro
RECORDED CONDITIONS: rat, gh3-tre-luc cells, AC50 (uM) modified / 1000

QUERY: I am curious: what CC50 at 24 h value has been reported for CCO[Si](CC)(OCC)OCC [Ethyltriethoxysilane] ?
RESULT: > 90 µM

QUERY: I am curious: what CC50 at 24 h value has been reported for O=[N+]([O-])c1ccc(/C=C/c2ccc([N+](=O)[O-])cc2S(=O)(=O)O)c(S(=O)(=O)O)c1 ?
RESULT: > 90 µM

QUERY: I am curious: what CC50 at 24 h value has been reported for COc1ccccc1OCC(O)COC(N)=O (stereo not drawn) [Methocarbamol] ?
RESULT: > 20 µM

QUERY: I am curious: what CC50 at 24 h value has been reported for CCCCCCCCCCCCCC [Tetradecane] ?
RESULT: > 90 µM

QUERY: I am curious: what CC50 at 24 h value has been reported for O=C1c2ccccc2C(=O)N1CCc1noc(-c2ccc(CN3CCCCCC3)s2)n1 [PharmaGSID_48172] ?
RESULT: > 80 µM
